molecular target: 5HT3 receptor (Rattus norvegicus, UniProt P35563); assay: 5-HT3 binding affinity in rat entorhinal cortex using ^3 H-BRL 43694 (Granisetron); set-up: labelled in the entorhinal cortex of the rat brain; from tissue; host or cells: rat entorhinal cortex
Structures can show the parent of a compound that is named as a salt.
// values below are reported pKi
Conceptually, pKi converts a concentration in mol/L into minus its log10.

Consider the following illustrative entries.
[
  {
    "compound": "CN1C2CCC1CC(N1CC3COc4ccccc4N3C1=O)C2 (stereo not drawn) [FCE 26878, hydrochloride]",
    "assay_target": "5HT3 receptor (Rattus norvegicus, UniProt P35563)",
    "pKi": 8.05
  },
  {
    "compound": "CCN(CC)CCNC(=O)c1cc(Cl)c(N)cc1OC [Metoclopramide, reference compound]",
    "assay_target": "5HT3 receptor (Rattus norvegicus, UniProt P35563)",
    "pKi": 6.31
  },
  {
    "compound": "CN1C2CCC1CC(N1CC3COc4ccc(Cl)cc4N3C1=O)C2 (stereo not drawn) [FCE 26783, hydrochloride]",
    "assay_target": "5HT3 receptor (Rattus norvegicus, UniProt P35563)",
    "pKi": 7.52
  }
]

# pKi lookup, item Cl.O=C1N(C2CN3CCC2CC3)CC2COc3ccccc3N12 (stereo not drawn) [FCE 26962, hydrochloride]
9.40

# repeat for CN1C2CCC1CC(OC(=O)c1cc(Cl)cc(Cl)c1)C2 (stereo not drawn) [MDL 72222, reference compound]
7.64

# repeat for Cl.O=C1N(C2CN3CCC2CC3)CC2COc3ccc(Cl)cc3N12 (stereo not drawn) [FCE 26781, hydrochloride]
7.89

* * *

// values below are reported Ki
Target: UniProtKB P35563
Sequence (P35563 24-483): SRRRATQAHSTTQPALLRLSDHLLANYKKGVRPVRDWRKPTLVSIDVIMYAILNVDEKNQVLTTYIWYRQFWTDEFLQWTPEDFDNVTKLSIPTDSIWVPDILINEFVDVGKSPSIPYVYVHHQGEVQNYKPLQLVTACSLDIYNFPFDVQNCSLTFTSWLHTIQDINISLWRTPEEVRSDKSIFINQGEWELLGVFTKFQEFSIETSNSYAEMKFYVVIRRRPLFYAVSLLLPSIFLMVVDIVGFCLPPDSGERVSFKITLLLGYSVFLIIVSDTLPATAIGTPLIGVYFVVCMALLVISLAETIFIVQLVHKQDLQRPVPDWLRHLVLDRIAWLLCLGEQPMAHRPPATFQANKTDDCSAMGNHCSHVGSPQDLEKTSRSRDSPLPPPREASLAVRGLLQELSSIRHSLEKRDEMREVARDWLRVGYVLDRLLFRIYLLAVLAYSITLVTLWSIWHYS
Assay: Inhibition of the binding of ^3 H-GR65630 to 5-HT3 sites in rat entorhinal cortex
Set-up: labelled in the entorhinal cortex of the rat brain; from tissue; host or cells: rat entorhinal cortex
Conditions: ^3 H-GR 65630, rat entorhinal cortex, high (affinity site); only Ki where one-site fit; read-out: Ki high
Structures can show the parent of a compound that is named as a salt.
Report as a plain number; the unit nM is understood.

[
  {
    "compound": "CN1C2CCCC1CC(N1CC3COc4ccccc4N3C1=O)C2 (centres unmarked) [FCE 26963, hydrochloride]",
    "Ki / nM": 151
  }
]

Then this compound:
# Ki lookup, item CN1C2CCC1CC(N1CC3COc4ccc(Cl)cc4N3C1=O)C2 (centres unmarked) [FCE 26783, hydrochloride]
400
